Data origin: the supplement of paper PMC6757056

B1: library; a variant is named by its letters at N, in order (parent)
chain: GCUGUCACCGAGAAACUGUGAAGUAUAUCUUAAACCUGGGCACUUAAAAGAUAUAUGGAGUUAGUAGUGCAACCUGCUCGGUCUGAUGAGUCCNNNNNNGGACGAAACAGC

- Variants of: B1
- assay_name: FACS-Seq fitted mean relative fluorescence mCherry/BFP without ligand (log10 relative fluorescence); HEK293T; ligand: cyclic di-GMP (c-di-GMP-II aptamer); higher = higher reporter protein expression
- test_conditions: ligand present: no
Provide the recorded FACS-Seq fitted mean (log10) for the entries that follow.
Hey, just send me the number, nothing else.

"GCUCGU" yielded FACS-Seq fitted mean (log10) of -0.452

"UUCGGC" yielded FACS-Seq fitted mean (log10) of -0.553

"GGCGAG" yielded FACS-Seq fitted mean (log10) of -0.757

"AGUGCC" yielded FACS-Seq fitted mean (log10) of 0.324

"UAGGCU" yielded FACS-Seq fitted mean (log10) of -0.161

"GAAUGA" yielded FACS-Seq fitted mean (log10) of -0.606

"CAGUAU" yielded FACS-Seq fitted mean (log10) of -0.493

"CUCUCU" yielded FACS-Seq fitted mean (log10) of -0.0993

"GCUAAU" yielded FACS-Seq fitted mean (log10) of -0.207

"AACACU" yielded FACS-Seq fitted mean (log10) of 0.049

"AGCUUG" yielded FACS-Seq fitted mean (log10) of -0.0154

"UAGUCC" yielded FACS-Seq fitted mean (log10) of 0.148

"GCGUCG" yielded FACS-Seq fitted mean (log10) of -0.555

"GUGAAU" yielded FACS-Seq fitted mean (log10) of -0.688

"AUGGUA" yielded FACS-Seq fitted mean (log10) of -0.519

"AUAGAC" yielded FACS-Seq fitted mean (log10) of -0.109

"AGGAAG" yielded FACS-Seq fitted mean (log10) of -0.88

"UCCAAA" yielded FACS-Seq fitted mean (log10) of -0.284

"UGAUAG" yielded FACS-Seq fitted mean (log10) of -0.125

"GCCGAC" yielded FACS-Seq fitted mean (log10) of -0.43

"AAUAGG" yielded FACS-Seq fitted mean (log10) of -0.474

"AGACGU" yielded FACS-Seq fitted mean (log10) of -1.02
